Where do these numbers come from? They come from paper PMC3531552.

target: ABCG2 (Homo sapiens, UniProt Q9UNQ0)
Sequence (Q9UNQ0 whole entry): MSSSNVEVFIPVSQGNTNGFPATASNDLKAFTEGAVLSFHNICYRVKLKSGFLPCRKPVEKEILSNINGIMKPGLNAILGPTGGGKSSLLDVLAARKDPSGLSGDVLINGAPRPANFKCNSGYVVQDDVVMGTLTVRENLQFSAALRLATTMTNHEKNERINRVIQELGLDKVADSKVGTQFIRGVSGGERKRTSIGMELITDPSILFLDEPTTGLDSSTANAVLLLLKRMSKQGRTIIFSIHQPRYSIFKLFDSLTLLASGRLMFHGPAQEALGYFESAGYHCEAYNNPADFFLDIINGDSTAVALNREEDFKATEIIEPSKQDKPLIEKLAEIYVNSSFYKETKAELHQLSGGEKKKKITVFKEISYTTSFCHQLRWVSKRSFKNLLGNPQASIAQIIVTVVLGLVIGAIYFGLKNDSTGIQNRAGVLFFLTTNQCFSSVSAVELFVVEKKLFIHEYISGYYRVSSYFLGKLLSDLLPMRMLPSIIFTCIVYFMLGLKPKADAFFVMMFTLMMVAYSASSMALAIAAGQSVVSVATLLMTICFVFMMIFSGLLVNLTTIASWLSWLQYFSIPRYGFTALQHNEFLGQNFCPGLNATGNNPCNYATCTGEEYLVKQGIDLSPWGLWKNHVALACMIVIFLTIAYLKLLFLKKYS
outcomeMeasure: IC50

INSERT INTO results (smilesdata, datavalue) VALUES
  ('Nc1nc(Cl)nc2c1ncn2[C@@H]1O[C@H](CO)[C@@H](O)[C@@H]1F', '~14 µM');
